# Protocol Text: Inhibition of NS5A in HCV genotype 1b infected in human HuH7 replicon cells assessed as reduction in subgenomic viral RNA replication treated for 2 days followed by compound washout and subsequent compound dosing measured after 1 day by SEAP reporter gene assay
Would you mind telling me the reported pEC50 of each entry?
Give bare numbers, as −log10 of the molar value.

Example entries begin here.
Query Smiles: CC(=O)N[C@@H](C(=O)N1CCC[C@H]1c1ncc(-c2ccc(-c3ccc(-c4cnc([C@@H]5CCCN5C(=O)[C@H](NC(C)=O)c5ccccc5)s4)cc3)cc2)s1)c1ccccc1
Metric Name: pEC50
Val: 10.70

Query Smiles: CCC[C@H](NC(=O)OC)C(=O)N1CCC[C@H]1c1ncc(-c2ccc(-c3ccc(-c4cnc([C@@H]5CCCN5C(=O)[C@H](CCC)NC(=O)OC)s4)cc3)cc2)s1
Metric Name: pEC50
Val: 6.91

Query Smiles: O=C(N[C@H](C(=O)N1CCC[C@H]1c1ncc(-c2ccc(-c3ccc(-c4cnc([C@@H]5CCCN5C(=O)[C@H](NC(=O)c5ccccn5)c5ccccc5)s4)cc3)cc2)s1)c1ccccc1)c1ccccn1
Metric Name: pEC50
Val: 5.58

Query Smiles: O=C(N[C@@H](C(=O)N1CCC[C@H]1c1ncc(-c2ccc(-c3ccc(-c4cnc([C@@H]5CCCN5C(=O)[C@H](NC(=O)c5ccccc5)c5ccccc5)s4)cc3)cc2)s1)c1ccccc1)c1ccccc1
Metric Name: pEC50
Val: 7.68

Query Smiles: CCN(CC)CCC(=O)N[C@H](C(=O)N1CCC[C@H]1c1ncc(-c2ccc(-c3ccc(-c4cnc([C@@H]5CCCN5C(=O)[C@H](NC(=O)CCN(CC)CC)c5ccccc5)s4)cc3)cc2)s1)c1ccccc1
Metric Name: pEC50
Val: 7.66

Please state pEC50 for every compound in the list that follows.
1. O=C(N[C@H](C(=O)N1CCC[C@H]1c1ncc(-c2ccc(-c3ccc(-c4cnc([C@@H]5CCCN5C(=O)[C@H](NC(=O)N5CCCC5)c5ccccc5)s4)cc3)cc2)s1)c1ccccc1)N1CCCC1
2. CCCC[C@@H](NC(=O)C1CC1)C(=O)N1CCC[C@H]1c1ncc(-c2ccc(-c3ccc(-c4cnc([C@@H]5CCCN5C(=O)[C@@H](CCCC)NC(=O)C5CC5)s4)cc3)cc2)s1

Result:
8.89
6.45

====

# Protocol Text: Inhibition of NS5A in HCV genotype 1b infected in human HuH7 replicon cells assessed as reduction in subgenomic viral RNA replication treated for 2 days followed by compound washout and subsequent compound dosing measured after 1 day by SEAP reporter gene assay
Would you mind telling me the reported pEC50 of each entry?
One number for each entry, as −log10 of the molar value.

Example entries begin here.
Query Smiles: CCC[C@@H](NC(=O)C1CC1)C(=O)N1CCC[C@H]1c1ncc(-c2ccc(-c3ccc(-c4cnc([C@@H]5CCCN5C(=O)[C@@H](CCC)NC(=O)C5CC5)s4)cc3)cc2)s1
pEC50: 7.04

Query Smiles: O=C(N[C@H](C(=O)N1CCC[C@H]1c1ncc(-c2ccc(-c3ccc(-c4cnc([C@@H]5CCCN5C(=O)[C@H](NC(=O)c5ccsc5)c5ccccc5)s4)cc3)cc2)s1)c1ccccc1)c1ccsc1
pEC50: 6.91

Parameter requested: pEC50. Apply to each item below.
1. O=C(N[C@@H](C(=O)N1CCC[C@H]1c1ncc(-c2ccc(-c3ccc(-c4cnc([C@@H]5CCCN5C(=O)[C@H](NC(=O)N5CCCC5)c5ccccc5)s4)cc3)cc2)s1)c1ccccc1)N1CCCC1
2. CC(=O)N[C@H](C(=O)N1CCC[C@H]1c1ncc(-c2ccc(-c3ccc(-c4cnc([C@@H]5CCCN5C(=O)[C@H](NC(C)=O)c5ccccc5)s4)cc3)cc2)s1)c1ccccc1
3. CC(C)C[C@@H](NC(=O)C1CC1)C(=O)N1CCC[C@H]1c1ncc(-c2ccc(-c3ccc(-c4cnc([C@@H]5CCCN5C(=O)[C@@H](CC(C)C)NC(=O)C5CC5)s4)cc3)cc2)s1
4. CCCCC(=O)N[C@H](C(=O)N1CCC[C@H]1c1ncc(-c2ccc(-c3ccc(-c4cnc([C@@H]5CCCN5C(=O)[C@H](NC(=O)CCCC)c5ccccc5)s4)cc3)cc2)s1)c1ccccc1
5. CC[C@H](NC(=O)OC)C(=O)N1CCC[C@H]1c1ncc(-c2ccc(-c3ccc(-c4cnc([C@@H]5CCCN5C(=O)[C@H](CC)NC(=O)OC)s4)cc3)cc2)s1
6. CN(C)CCC(=O)N[C@@H](C(=O)N1CCC[C@H]1c1ncc(-c2ccc(-c3ccc(-c4cnc([C@@H]5CCCN5C(=O)[C@H](NC(=O)CCN(C)C)c5ccccc5)s4)cc3)cc2)s1)c1ccccc1

Result:
1: 10.46; 2: 9.23; 3: 7.57; 4: 8.12; 5: 7.24; 6: 8.60

Give one value of pEC50 per listed compound.
1. O=C(CCN1CCOCC1)N[C@H](C(=O)N1CCC[C@H]1c1ncc(-c2ccc(-c3ccc(-c4cnc([C@@H]5CCCN5C(=O)[C@H](NC(=O)CCN5CCOCC5)c5ccccc5)s4)cc3)cc2)s1)c1ccccc1
2. CS(=O)(=O)N[C@@H](C(=O)N1CCC[C@H]1c1ncc(-c2ccc(-c3ccc(-c4cnc([C@@H]5CCCN5C(=O)[C@H](NS(C)(=O)=O)c5ccccc5)s4)cc3)cc2)s1)c1ccccc1

Result:
1: 8.59; 2: 8.47

Cited source: BindingDB's records for doi:10.1016/j.ejmech.2019.02.016
